Let's look at some molecules and their measured normalized growth.
Test name: chemical genetic growth profiling, strain panel (AID 1159580);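 also: tested at 20 µM; growth read once vehicle control cultures reached saturation at 30 °C; 1 = growth at the plate median or of vehicle wells; lower values mean less growth of the strain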
Recorded conditions: S. cerevisiae deletion strains, growth OD, locus YPR163C, strain tif3, active compounds read low
In all, about 5,500 compounds went through this assay and about 2,000 (36%) were called active. Another 18% or so got no clear call; they are omitted. Some of the results follow.
Readout label: normalized growth

| Molecule | Readout label | Number |
| --- | --- | --- |
| CN1C2CCC1CC(OC(c1ccccc1)c1ccccc1)C2 (stereo not given) | normalized growth | 0.952 |
| O=C(OCC(O)CO)c1ccccc1Nc1ccnc2cc(Cl)ccc12 (stereo not given) | normalized growth | 0.979 |
| COc1ccc2c(c1)OC/C(=C/c1ccc(OC)c(OC)c1)C2=O | normalized growth | 0.726 |
| COc1cc2c(cc1OC)C(=O)c1ccc(OC)c(OC)c1OCC(=O)C2 | normalized growth | 0.999 |
| COC(=O)CC1C2(C)CC34OC5(C)OC6(C7/C(=C(/O)C(C)C)C(=O)OC(c8ccoc8)C7(C)C(OC(=O)C(C)C)C(OC)C6(O5)C13C)C(OC)C4(OC)C2OC(C)=O (stereo not given) | normalized growth | 0.999 |
